tested on: K4 kissing-loop RNA reporter; test: apparent KD of K4 kissing-loop reporter; higher = weaker reporter binding; conditions: Eterna round: R107; input ligand: FMN 200 uM;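 note: bound reporter read as fluorescence of individual clusters on recovered sequencing chips by microscopy, with normalized cluster intensities fitted with a binding model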
So basically: apparent KD of K4 kissing-loop reporter at 200 nM or higher? That is 1.0. Lower than 200 nM? That is 0.0.

[
  {
    "Primary Sequence": "AACUGUCAAGGCCAACAUUACUGAGGUGAUACCAGCAUCGAAAGAUGCCCUUGGCAGCACCGACUUGCAGUGAUGUUGCAAGUAA [BrourdMod 12 - Jieux - Exclusion - Theophylline A]",
    "Class Label": 1.0
  },
  {
    "Primary Sequence": "AGACUACUGAUAGGAUAUAACAUACUAGCUCGUAUACCAAAGGUAUACGAGCUCCUUCUAGUGAUGUUAGAAGGGUCGGUAGUCA [Omei KL FMN B Exc B v4]",
    "Class Label": 0.0
  },
  {
    "Primary Sequence": "GGUUCCUCAGUGAUGUUGAGGUGACCUCGGCAGGAUAUAGGCAUUACUAGAAGGGCCAAAAGAAUCCUGUGCAGCAACACAGGGA [Usrasoza]",
    "Class Label": 0.0
  }
]

Please examine the following record next.
Does the reported apparent KD of K4 kissing-loop reporter for ACGCGCGCGAGUGAUGUUCGGAGCGGCUGGCAGGAUAUGCCGCAAGGCAGAAGGGUCGUGGCGCGUCCAGGGUAACCUGGACGCG [#2 Exclusion - FMN A Attempt #28 (HarryS)] fall at or above the 200 nM mark? 0.0
